Hey, just so you know, these numbers are from PubChem BioAssay AID463173.

System: Wild type
Assay: S. aureus survival, RN4220 and DeltatarO strains – OD600, teichoic acid synthesis inhibitors, primary screen (AID 463173)
Conditions: S. aureus RN4220 wild type/DeltatarO growth, OD600, 18 h, active compounds read low, screened at 18.75 µg/mL (by protocol)
In all, about 52,000 compounds went through this assay and about 1,700 (3.3%) were called active. The sample as a whole holds a higher share of actives than the screen did.
Below, each entry is listed with its recorded survival.
VALUE_TYPE: survival (%)

> print(dat)
                                    compound  target.or.system  measured.value
 1  CCOc1ccc(-c2c(C)nn3c(C)c(C(=O)NCc4ccc(Cl)cc4)cnc23)cc1OCC         Wild type             123
 2  CCOc1ccc2nc(NCCCNC(=O)C3CCCO3)c(C#N)cc2c1 (configuration not stated)         Wild type             105
 3  CCOc1ccc(N2CC(c3nc4ccccc4n3CCC3CCCCC3)CC2=O)cc1 (configuration not stated)         Wild type              29
 4  COc1cccc(-n2ccnc2SCC(=O)Nc2c(C)cc(C)cc2C)c1         Wild type             113
 5  COc1cc(NC(=O)N2CCC(CN3CCc4ccccc4C3)CC2)cc(OC)c1         Wild type              81
 6  Cc1cc(C)cc(NC(=O)N2CCC(CN3CCc4ccccc4C3)CC2)c1         Wild type              81
 7  Cc1ccc(C(=O)Nc2cccc(C(=O)OCc3cc(=O)n4nc(C5CC5)sc4n3)c2)cc1         Wild type              55
 8                 O=C(O)CCSc1nnnn1-c1ccccc1         Wild type             114
 9  COc1cccc(C(=O)Nc2ccc(C(=O)OCc3cc(=O)n4nc(C5CC5)sc4n3)cc2)c1         Wild type              63
10  CC(C)(C)OC(=O)N1CCC(c2c(C(=O)NCCN3CCOCC3)cnn2-c2ccc(F)cc2F)CC1         Wild type              -3
11  CC(C)(C)OC(=O)N1CCC(c2c(C(=O)NC3CCN(Cc4ccccc4)CC3)cnn2-c2ccc(F)cc2F)CC1         Wild type              -4
12  CCc1ccccc1NC(=O)N1CCC(CN2CCc3ccccc3C2)CC1         Wild type              60
13  Cc1ccc(OCC(=O)Nc2ccc(C(=O)OCc3cc(=O)n4nc(C5CC5)sc4n3)cc2)cc1         Wild type              81
14   CCOc1ccc(NC(=O)N2CCC(CN3CCCCCC3)CC2)cc1         Wild type             111
15  COc1ccccc1OCCCCn1c(C2CC(=O)N(c3ccccc3Cl)C2)nc2ccccc21 (configuration not stated)         Wild type              85
16  O=C1CC(c2nc3ccccc3n2CCC2CCCCC2)CN1c1ccccc1Cl (configuration not stated)         Wild type              32
17        CSc1nc2ccc(S(=O)(=O)N3CCCCC3)cc2s1         Wild type             105
